Assay: BET inhibitor-based combinations targeting novel dependencies in MECOM-rearranged (r) AML: HNT-34 cell line (AID 2202234); further: nearly all actives have a fitted effect of over 35% in size
Conditions: HNT-34 AML viability, CellTiter-Glo luminescence, 48 h; series mostly up to 46 µM
Results filed as inconclusive are left out. Activity calls are given as the source filed them. The call rests on the fitted dose curve; in most records, active means well fitted inhibition curve with a large enough effect; inconclusive means small, poorly fitted or top-dose-only effect; inactive means no such curve, though single readings can be large or run the other way.
Parameter call: string, one of T (active), F (inactive)

Observe how each entry below is paired with its result.
{"columns": ["Compound", "Class label"],
 "data": [
  ["COc1cc(N2CCC(N3CCN(C)CC3)CC2)ccc1Nc1ncc(Cl)c(Nc2ccccc2S(=O)(=O)C(C)C)n1", "T"],
  ["O=C(c1ccccc1)c1ccc2n1CCC2C(=O)O (stereo not given)", "F"]
]}

Prompt: Any idea what this test logged for COC(=O)[C@H](c1ccccc1Cl)N1CCc2sccc2C1 ?
Completion: F

Prompt: What outcome does the record of this test show for O=C1c2cccc(O)c2C(=O)c2c(O)cc(CO)cc21 ?
Completion: F

Prompt: Hello, I am checking results. What call was entered for CCCS(=O)(=O)Nc1ccc(F)c(C(=O)c2c[nH]c3ncc(Cl)cc23)c1F ?
Completion: T

Prompt: Record request — test call for CC(C)n1nc(-c2ccc3oc(N)nc3c2)c2c(N)ncnc21
Completion: T

Prompt: Which outcome did this test record for the compound C#Cc1cccc(Nc2ncnc3cc(OC)c(OCCCCCCC(=O)NO)cc23)c1 ?
Completion: T

Prompt: Hello, I am checking results. What call was entered for COc1cc(C[C@@H](CO)[C@H](CO)Cc2ccc(O)c(OC)c2)ccc1O ?
Completion: F

Prompt: Outcome logged for CCS(=O)(=O)c1cccc(-c2cc(C(=O)NC3CCN(C)CC3)c(C)c3[nH]c4ncc(C)cc4c23)c1 in this assay:
Completion: T

Prompt: Per the assay record, what outcome was assigned to CCCCS(=N)(=O)CCC(N)C(=O)O (stereo not given) ?
Completion: F

----------
Molecular target: Retinaldehyde dehydrogenase 3 (Homo sapiens) (UniProt P47895)
Experiment: qHTS for Inhibitors of the Aldehyde Dehydrogenase Family (ALDH1A3) Validation screen (AID 2061312); further: nearly all actives have a fitted effect of over 45% in size
Settings: ALDH1A3 enzyme inhibition qHTS validation, fluorescence; series mostly up to 84.7 µM
Inconclusive results are not listed. Active and inactive are the calls of the source. Calls follow the shape of the dose curve; as a rule, active = well fitted inhibition curve with a large enough effect; inconclusive = small, poorly fitted or top-dose-only effect; inactive = no such curve, though single readings can be large or run the other way.
Mark one answer only. Choices: class 1 for active, class 0 for inactive

Look over these answered cases.
{"columns": ["Compound", "Target entity", "Class label"],
 "data": [
  ["CC(=O)CCCCn1c(=O)c2c(ncn2C)n(C)c1=O", "Retinaldehyde dehydrogenase 3 (Homo sapiens) (UniProt P47895)", "class 0"],
  ["O=C(C(c1ccccc1)c1ccccc1)N1CCN(CC(O)COc2cccc3ncccc23)CC1 (configuration not stated)", "Retinaldehyde dehydrogenase 3 (Homo sapiens) (UniProt P47895)", "class 0"],
  ["O=C(O)CCCC[C@@H]1CCSS1", "Retinaldehyde dehydrogenase 3 (Homo sapiens) (UniProt P47895)", "class 0"],
  ["CN1CCN(C2Cc3ccccc3Sc3ccc(Cl)cc32)CC1 (configuration not stated)", "Retinaldehyde dehydrogenase 3 (Homo sapiens) (UniProt P47895)", "class 0"],
  ["COc1cc2nc(C3CC3)nc(N3CCN(c4ccccc4OC)CC3)c2cc1OC", "Retinaldehyde dehydrogenase 3 (Homo sapiens) (UniProt P47895)", "class 0"]
]}

Prompt: Test call for this compound, please: C[C@H](Cc1ccccc1)Nc1ncnc2c1ncn2[C@@H]1O[C@H](CO)[C@@H](O)[C@H]1O
Completion: class 0

Prompt: Could you check what this test reported for COc1ccc2c(c1)c(CC(=O)O)c(C)n2C(=O)c1ccccc1 ?
Completion: class 0

Prompt: Hi team, can someone confirm the assay call for O=C(O)c1cccnc1Nc1cccc(C(F)(F)F)c1 ?
Completion: class 0

Prompt: # fetch the recorded call for CC(C)n1cnc2c(NCCc3ccc(O)cc3)nc(-c3csc4ccccc34)nc21 here
Completion: class 0

Prompt: What was the test verdict on CC(C)[N+]1(C)C2CCC1CC(OC(=O)C(CO)c1ccccc1)C2 (configuration not stated) ?
Completion: class 0

Prompt: So what was the verdict on COc1cccc(OC)c1-c1nc(C(=O)N[C@@H](CC(C)C)C(=O)O)cn1-c1ccnc2cc(Cl)ccc12 in this test?
Completion: class 0

Prompt: # lookup: test call for COC(=O)c1c(C)[nH]c(C)c1C(=O)c1ccccc1Cc1ccccc1
Completion: class 0

Prompt: Could you check what this test reported for O=C(O)CN(CCN(CC(=O)O)CC(=O)O)CCN(CC(=O)O)CC(=O)O ?
Completion: class 0

Prompt: For CCCCCCCCCCCCCCCCCCOC[C@H](COP(=O)([O-])OCC[N+](C)(C)C)OC , which call appears in the assay record?
Completion: class 0

Prompt: Name the outcome recorded for O=C(Nc1nc2ccc([N+](=O)[O-])cc2s1)C1CCCCC1 in the assay.
Completion: class 1

Prompt: Just curious, what result did CC1(C)Oc2ncnc(N)c2N=C1c1ccc(C23CCC(CC(=O)O)(CC2)CC3)cc1 get here?
Completion: class 0

Prompt: Tell me the recorded outcome of this test for Oc1ccccc1-c1cc(-c2ccccc2F)[nH]n1 .
Completion: class 0
